Tested on: EKVX
Assay: NCI tumour cell line growth inhibition, 48 h
The source made the active and inactive calls. Rule as the data show it: active = GI50 up to about 1.1 µM and inactive = higher.
measured-property: GI50

Prompt line: Look at this molecule and give its reported GI50. `C=C(C)CNCC(=C)C.Oc1c(Cl)c(Cl)c(Cl)c(Cl)c1Cl`
Response line: 17.9 µM (inactive)

Prompt line: Quick one: `O=C(CC(=O)n1nc(-c2ccccc2)c(/N=N/c2ccc(Cl)cc2)c1-c1ccccc1)Nc1cccc(Cl)c1`
Response line: 25.3 µM (inactive)

Prompt line: Moving on to the next molecule: `COc1ccc2c(c1)c1c(n2CCN(C)C)-c2ccccc2CC1`
Response line: 9.77 µM (inactive)

Prompt line: Similarly, `Cn1cnc(N)c(N=O)c1=O` ?
Response line: > 10 µM (inactive)

* * *

Tested on: 786-0
Assay: NCI tumour cell line growth inhibition, 48 h
Active and inactive are the calls of the source. Cut-off read from the data, not from the text of the source: active = GI50 up to about 1.1 µM and inactive = higher.
Hi there, I'd appreciate the recorded GI50 for every entry that follows.

Prompt line: Give GI50 (786-0) of the following compound: Cc1cc(C)c2c(c1)Nc1ccccc1P2c1ccccc1 (configuration not stated)
Response line: 36.5 µM (inactive)

Prompt line: Now consider C[C@@H]1CC(=O)[C@@]2(C)[C@](O)(CCC3O[C@]32C)[C@@]12CC(c1ccoc1)OC2=O (some centres not stated) .
Response line: 75.7 µM (inactive)

Prompt line: Lookup `CC(C)(C)OC(=O)NCC(CNC(=O)OC(C)(C)C)C(N)=O`
Response line: > 100 µM (inactive)

Prompt line: // same read-out, input: COc1cccc(N2C(=O)CSC2c2cccc(Oc3ccccc3)c2)c1 (configuration not stated)
Response line: 6.47 µM (inactive)

Prompt line: What about this compound? `COc1ccccc1/C=N/N=C(\N)NO`
Response line: 23 µM (inactive)

Prompt line: Another compound: `O=C1c2ccccc2/N=C(/c2cc3c(cc2Cl)Sc2nccn2S3(=O)=O)OS(=O)(=O)N1c1ccccc1`
Response line: 38.4 µM (inactive)

Prompt line: Can you handle `C=C(C)CC1=C(C(=S)NCCO[Si](C)(C)C(C)(C)C)C(OCC)(OCC)C1=O` next?
Response line: 16.6 µM (inactive)

Prompt line: What do you have for `S=C(NCCc1ccccn1)c1nc[nH]c1C(=S)NCCc1ccccn1` ?
Response line: 53.3 µM (inactive)

Prompt line: Lookup Cc1ccc(S(=O)(=O)N/N=C2\CC3CC4CCC2C4C3)cc1 (configuration not stated)
Response line: > 100 µM (inactive)

Prompt line: Continue with `c1ccc2nc3c(nc2c1)sc1ccccc13`
Response line: 23 µM (inactive)

Prompt line: Please give the result for CC(C)C(C=O)C(O)(C(F)(F)F)C(F)(F)F (configuration not stated) too.
Response line: > 100 µM (inactive)

Prompt line: Same read-out for C/C(=N\OCC(O)CNCCSCc1ccccc1)c1ccccc1Cl (configuration not stated) ?
Response line: 21.4 µM (inactive)

* * *

Answer each item with its documented GI50.
Test system: NCI-H460
Experiment: NCI tumour cell line growth inhibition, 48 h
The source made the active and inactive calls. Cut-off read from the data, not from the text of the source: active = GI50 up to about 1.1 µM and inactive = higher.

Prompt line: What measured GI50 is associated with `CCC1(CC)C(=O)CC[C@@]2(C)C1=CC[C@H]1[C@@H]3CC[C@H](O)[C@@]3(C)CC[C@@H]12` on NCI-H460?
Response line: 16.3 µM (inactive)

Prompt line: Record: `Cn1c2ccccc2n2c3ccccc3c3nnc(N)c-3c12`
Response line: > 60.4 µM (inactive)

Prompt line: Follow-up item: `c1ccc2c(c1)[Se]c1ccccc1[Se]2`
Response line: 38.3 µM (inactive)

* * *

System: MDA-MB-231
Experiment: NCI tumour cell line growth inhibition, 48 h
Calls of active or inactive are those of the source. Cut-off read from the data, not from the text of the source: active = GI50 up to about 1.1 µM and inactive = higher.
Exercise: for every item that follows, state its recorded GI50.

Prompt line: May I ask what GI50 has been recorded for `C=C(C)CC1=C(C(=S)NCCO[Si](C)(C)C(C)(C)C)C(OCC)(OCC)C1=O` ?
Response line: 26.4 µM (inactive)

Prompt line: Quick one: CC1NC(/C(=C/c2ccccc2O)NC(=O)c2ccccc2)OC1=O (centres undefined)
Response line: > 50 µM (inactive)

Prompt line: Then this compound: COC(=O)C12C3C4(C(=O)OC)C1C1(C(=O)OC)C2C3(C(=O)OC)C41C(=O)N(C(C)C)C(C)C (centres undefined)
Response line: > 100 µM (inactive)

Prompt line: // repeat for `Cc1cc(C(=C2C=CC(=N)C=C2)c2ccc(N)cc2)ccc1N` and report
Response line: 6.3 µM (inactive)

Prompt line: Note, next up: `CCC1(CC)C(=O)CC[C@@]2(C)C1=CC[C@H]1[C@@H]3CC[C@H](O)[C@@]3(C)CC[C@@H]12`
Response line: 47.9 µM (inactive)

Prompt line: Same lookup for `O=C1C(NS(=O)(=O)c2ccccc2)=C(n2ccnc2)C(=O)c2ccccc21` , please.
Response line: > 100 µM (inactive)

Prompt line: Thanks! And `Cc1ccnc2nc(N)ccc12` ?
Response line: > 100 µM (inactive)

Prompt line: Again, but for `C=CCN(c1cc(OC)c2[nH]cc(C)c2c1[N+](=O)[O-])S(C)(=O)=O`
Response line: > 100 µM (inactive)

Prompt line: Another: `CN(C)c1nc2n(CCO)c(-c3ccccc3)c(-c3ccccc3)nc-2c(=O)n1`
Response line: > 100 µM (inactive)

Prompt line: Same again, this time with `COc1ccc(-n2cnc3c(NCC(=O)O)ncnc32)cc1`
Response line: > 100 µM (inactive)

Prompt line: Item: O=C(OCC1OC(n2nc(Cn3nnc(-c4cccnc4)n3)n(-c3cccc4ccccc34)c2=S)C(OC(=O)c2ccccc2)C1OC(=O)c1ccccc1)c1ccccc1 (centres undefined)
Response line: 53.8 µM (inactive)

Prompt line: Subsequent entry: `O=C(CNc1ccc2c(=S)c3ccccc3[nH]c2c1)Nc1ccccc1-c1ccccc1NC(=O)CNc1ccc2c(=S)c3ccccc3[nH]c2c1`
Response line: 22.7 µM (inactive)

Prompt line: Can you handle COc1ccccc1C1Nn2c(nc3ccccc3c2=O)N1c1ccc(C)cc1 (centres undefined) next?
Response line: 5.62 µM (inactive)

Prompt line: Please give the result for `Cc1nc2ccccc2c(=O)n1NC(=O)c1ccc(CS)cc1` too.
Response line: 13 µM (inactive)

* * *

Test system: PC-3
Experiment: NCI tumour cell line growth inhibition, 48 h
Calls of active or inactive are those of the source. Rule as the data show it: active = GI50 up to about 1.1 µM and inactive = higher.
Choose one outcome from this list and give only that: yes (1) (active), no (0) (inactive)

Prompt line: Short answer needed: outcome of this test for O=C1CSC2=NC3=C(CSC/C3=C\c3ccc(Cl)cc3)C(c3ccc(Cl)cc3)N12 (stereo unspecified) ?
Response line: no (0)

Prompt line: Let us now turn to CC1(C)SC2C(NC(=O)C(C(=O)O)c3ccccc3)C(=O)N2C1C(=O)O (stereo unspecified)
Response line: no (0)

Prompt line: Now consider `O=C1CCSC(=S)N1c1ccc(Br)c(Cl)c1` .
Response line: no (0)

Prompt line: Now consider `COC(=O)/C=C1\C(=O)N(C(C)=O)c2ccccc21` .
Response line: no (0)

Prompt line: Next compound up: `C=C[C@@]1(C)CC(=O)[C@]2(O)[C@@]3(C)[C@@H](OC(C)=O)CCC(C)(C)[C@@H]3[C@H](O)[C@H](OC(C)=O)[C@@]2(C)O1`
Response line: no (0)

Prompt line: // query: CC1(C)C/N=C/C(C)(OCc2ccccc2)C(=O)NC(C)(C)C/N=C/C(C)(OCc2ccccc2)C(=O)N1 (stereo unspecified)
Response line: no (0)

Prompt line: Repeat for the following compound: `C=C(C)CNCC(=C)C.Oc1c(Cl)c(Cl)c(Cl)c(Cl)c1Cl`
Response line: no (0)

Prompt line: Also `CN(C)c1ccc(C=c2c3ccccc3n3c2cc(-c2ccc(Cl)cc2)[n+]3C)cc1` , if possible.
Response line: yes (1)

Prompt line: Item: `O=CN/C=C/c1cc(O)ccc1O`
Response line: no (0)

Prompt line: Next up: `CC1=C[C@@H](C)C[C@]2(C)CC[C@H](O2)[C@]23CC[C@](C(=O)O)(C[C@H](O2)[C@@H]2O[C@@](C)(CC2=O)[C@@H](O)[C@H]2CC[C@@]4(CCC[C@@H](O4)[C@H](C)C(=O)O[C@H]4C[C@H]([C@]5(O)OCC[C@H](C)[C@@H]5O)O[C@H]4C=C1)O2)O3`
Response line: no (0)

Prompt line: Can you handle `O=C(CNc1ccc2c(=S)c3ccccc3[nH]c2c1)Nc1ccccc1-c1ccccc1NC(=O)CNc1ccc2c(=S)c3ccccc3[nH]c2c1` next?
Response line: no (0)

Prompt line: And then CSc1ncc2c(n1)-c1ccccc1OC2NC(C)(C)C (stereo unspecified) , what is it?
Response line: no (0)

Prompt line: COc1cccc(N2C(=O)CSC2c2cccc(Oc3ccccc3)c2)c1 (stereo unspecified) , same question.
Response line: no (0)

Prompt line: One more compound: `NC(=O)c1nnn(-c2ccccc2)c1O`
Response line: no (0)

Prompt line: Cool, now COc1cc([C@@H]2c3cc4c(cc3[C@H](OC3OC5COC(C(C)C)OC5C(O)C3O)C3COC(=O)[C@@H]32)OCO4)cc(OC)c1O (stereo partly specified)
Response line: no (0)

Prompt line: Please answer likewise for `Cc1ccc(S(=O)(=O)NC(=O)OC23COCN2COC3)cc1`
Response line: no (0)

Prompt line: How about CN(C)C(=O)C(F)(F)C(c1ccc(Br)cc1)C1C(=O)N(C)C(=O)N(C)C1=O (stereo unspecified) ?
Response line: no (0)

Prompt line: Field entry: `CC(C)(C)OC(=O)[C@@H]1CCC(=S)N1Cc1ccccc1`
Response line: no (0)

Prompt line: Same question, `COc1cc(NS(C)(=O)=O)ccc1Nc1ccnc2ccc3[nH]ccc3c12` this time
Response line: no (0)

Prompt line: What do you get for C=CCCC(=O)N1CCC(C(=O)OCC)C1=O (stereo unspecified) ?
Response line: no (0)

Prompt line: Same for `CCc1n[nH]c(=O)n1-c1ccncc1`
Response line: no (0)
